The measured values listed here are drawn from PubChem BioAssay (NCI).

tested on: SNB-19 CNS; test: NCI-60 one-dose screen, 48 h (100 = growth as untreated, 0 = no growth, -100 = all killed); conditions: 10 µM unless noted
About 83,000 compounds went through this panel and 20% of them were active in at least one assay; those are over-represented in the sample as a whole.
measured-metric: growth (%)
Numbers only, in %.

Example compounds with recorded growth:
1) CN1CCN(c2nc(NCCCCNc3ccnc4cc(Cl)ccc34)c3ccccc3n2)CC1: 53.5
2) COc1ccc(NC(=O)c2ccc(/C=C/C(=O)c3ncc[nH]3)cc2)cc1: 56.1
3) C=CC(=O)Nc1cccc(-c2nc(SC)nc(NCc3ccccc3)c2C#N)c1: 54.8
4) CCCCCCN(CCCCCC)C(=N)c1ccnc2ccccc12: 84.1
5) CCN(CC)S(=O)(=O)c1ccc(OC)c(NC(=O)c2[nH]c(C)c3c2CCCCC3=O)c1: 45.2

Hey, quick one: what's growth for each of these?
1. COC(=O)c1ccc(NC(=O)c2ccc(-c3cccc([N+](=O)[O-])c3)o2)cc1
2. Cc1ccc(NS(=O)(=O)c2ccc(-c3cnc(C4CC4)o3)cc2)cc1C
3. CSc1nc2c(c(=O)[nH]1)C1(C(=O)Nc3ccccc31)c1c(nc(SC)[nH]c1=O)N2
4. OCCNc1nccc(N2CCN(c3ccnc4cc(Cl)ccc34)CC2)n1
5. CC(C)c1c(C(=O)c2ccccc2)c(-c2ccccc2)c(-c2ccc(F)cc2)n1CC[C@@H](O)C[C@@H](O)CC(=O)O
6. CCOC(=O)C(C)(C#N)C1C=CCCC1 (stereo unspecified)

Given back:
1: 94.4; 2: 46.8; 3: 106; 4: 88.9; 5: 57.4; 6: 87.9

* * *

Provide the recorded growth for the entries that follow.
system: NCI-H522 lung; assay: NCI-60 one-dose screen, 48 h (100 = growth as untreated, 0 = no growth, -100 = all killed); details: 10 µM unless noted
The panel holds about 83,000 compounds, 20% with a hit somewhere; the sample as a whole holds those more often. Calls of active or inactive are those of the source. Rule for the calls: active = growth percent below 10; inactive = the rest.

1) O=C(CCl)Oc1ccc(-c2ccccc2)c(Br)c1: 107% (inactive)

Can you give me growth for all of these, one by one?
1. Cc1cc(Nc2ccc(C)c(Cl)c2)n2nc(C(F)(F)F)nc2n1
2. COc1ccc(S(=O)(=O)N2CCN(C)CC2)cc1NC(=O)c1[nH]c(C)c2c1CCCCC2=O
3. NC1=C(Cl)C(=O)c2ccc(S(N)(=O)=O)cc2C1=O
4. CN1CCN(CCCOc2cccc3nc(Nc4ccc(Cl)c(F)c4)ccc23)CC1
5. COCCNc1ccc2c3c(cccc13)C(=O)N(CCN(C)C)C2=O
6. O=C1Nc2c(ccc(Cl)c2Cl)/C1=C\c1ccc(C(F)(F)F)cc1
7. CN1C(=O)C2(SCC(C(=O)NCc3ccccc3)N2C(=O)C2CCCCC2)c2ccccc21 (stereo unspecified)
8. CCCOc1cc2ccccc2cc1C(=O)Nc1nc(NC)c2c(ccc3nccc32)[nH]1

Given back:
36.2% (inactive)
50.1% (inactive)
-84.1% (active)
29.8% (inactive)
-25.6% (active)
76.4% (inactive)
75.4% (inactive)
-74.5% (active)

For every item below, please supply its growth.
1. COc1ccc(C(=O)COc2ccc(/C=C3\COc4ccc(OC)cc4C3=O)cc2)cc1
2. O=C(Cc1ccc(/C=C/C(=O)c2ncc[nH]2)cc1)Nc1ccc(F)cc1

Given back:
70.1% (inactive)
22.2% (inactive)

Could I get growth for every one of these entries?
1. CCN1CCC2(CC1)NC(=O)c1c(c3ccc(Cl)c(Cl)c3n1C)C2C#N (stereo unspecified)
2. CC/C=C\C[C@H](O)C/C=C1/C(=O)C=C[C@@]1(C)C/C=C\CCCC(=O)OC
3. O=C1Nc2ccc(Br)cc2C12Oc1ccccc1C1CC(c3ccc(F)cc3)=NN12 (stereo unspecified)
4. CCCc1cc(=O)n2c(C(=O)Nc3cccc(C(=O)OCC)c3)c(C(=O)Nc3ccc(F)cc3)sc2n1
5. O=C(Nc1ccc(Cl)cc1)c1cc2cc(F)ccc2cc1O
6. COc1cc(-c2nn(-c3ccc(Br)cc3)cc2C(=O)O)ccc1O
7. Cc1nn(-c2ccc(F)cc2)c2ncnc(Oc3ccc(NC(=O)Nc4ccc(Cl)c(C(F)(F)F)c4)cc3)c12
8. CCCCN1CCCn2c1nc1c2c(=O)n(CCC)c(=O)n1CCC

Given back:
61.5% (inactive)
81.2% (inactive)
81% (inactive)
65% [30 µM] (inactive)
-0.904% (active)
67.7% (inactive)
99.7% (inactive)
76.6% (inactive)

Return reported growth values for all items listed beneath this line.
1. CN(C)c1ccc(N=Nc2ccc(Br)cn2)c(O)c1
2. N#C/C(=C\c1ccc(-c2ccc(Cl)c(Cl)c2)o1)c1nc(-c2ccco2)cs1

Given back:
1. 14.4% (inactive)
2. 89.3% (inactive)
